Cited source: patent US10231954B2

Molecular target: MKK2 (Homo sapiens)
Sequence (P36507 whole entry, species assumed): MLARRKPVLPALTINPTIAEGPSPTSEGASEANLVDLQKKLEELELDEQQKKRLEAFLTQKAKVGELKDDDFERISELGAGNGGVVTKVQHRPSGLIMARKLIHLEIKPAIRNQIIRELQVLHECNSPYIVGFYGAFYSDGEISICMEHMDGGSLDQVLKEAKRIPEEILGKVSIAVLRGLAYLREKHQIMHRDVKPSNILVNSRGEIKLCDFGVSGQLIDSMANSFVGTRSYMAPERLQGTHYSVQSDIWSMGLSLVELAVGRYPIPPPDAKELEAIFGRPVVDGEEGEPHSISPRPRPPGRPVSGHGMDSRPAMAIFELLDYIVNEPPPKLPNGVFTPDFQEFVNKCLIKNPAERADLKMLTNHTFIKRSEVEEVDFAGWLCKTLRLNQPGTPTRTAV
Assay: Kinase profiling MKK2
Format: biochemical
Conditions: 100 micromolar inhibitor concentration; 100 is no change; read-out: residual kinase activity, MKK2
Criterion: remaining activity at 100 µM strictly under 90%. Met: y. Not met: n.

Some solved cases for reference:
smilesText	testedSystem	label
CC(=O)Nc1nc2ccc(C#N)cc2s1	MKK2 (Homo sapiens)	y
CC(=O)Nc1nc2cc(C(F)(F)F)ccc2s1	MKK2 (Homo sapiens)	n
CC(=O)Nc1nc2cc(F)ccc2s1	MKK2 (Homo sapiens)	n
CC(=O)Nc1nc2ccc(C(F)(F)F)cc2s1	MKK2 (Homo sapiens)	y

Now take the following molecule into account.
Ask: Field: below-cutoff. Rule: recorded remaining activity at 100 µM strictly less than 90%. Subject: `CC(=O)Nc1nc2ccc(O)cc2s1`
Result: y

----------
Biological target: p38d MAPK (Homo sapiens)
Sequence (O15264 whole entry): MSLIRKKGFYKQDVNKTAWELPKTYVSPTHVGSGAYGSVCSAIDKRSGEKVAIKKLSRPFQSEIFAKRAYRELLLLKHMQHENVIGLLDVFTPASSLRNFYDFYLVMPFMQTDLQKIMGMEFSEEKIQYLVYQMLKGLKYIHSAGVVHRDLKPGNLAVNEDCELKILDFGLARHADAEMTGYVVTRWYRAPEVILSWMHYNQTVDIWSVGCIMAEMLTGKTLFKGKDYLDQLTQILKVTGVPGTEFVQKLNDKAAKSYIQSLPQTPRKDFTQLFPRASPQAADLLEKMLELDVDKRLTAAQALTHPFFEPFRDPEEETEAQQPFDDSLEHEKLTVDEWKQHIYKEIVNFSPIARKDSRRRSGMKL
Assay: Kinase profiling p38d MAPK
Type: biochemical
Conditions: 100 micromolar inhibitor concentration; 100 is no change
Listed here: items and their measured residual kinase activity, p38d MAPK.
Give only the figure.

compound	residual kinase activity, p38d MAPK
O=C(Nc1nc2cc(O)ccc2s1)c1ccccn1 [Compound 03-13]	99

Ask: In one line, give reported residual kinase activity, p38d MAPK of the entry O=C(Nc1nc2ccc(O)cc2s1)c1ccncc1 [Compound 08-42] .
Result: 65

Ask: Name the recorded residual kinase activity, p38d MAPK of the item CC(=O)Nc1ccccc1C(=O)Nc1nc2ccc(O)cc2s1 [Compound 08-39] in your answer.
Result: 67

----------
Target: NUAK1 (Homo sapiens)
Sequence (O60285 whole entry, species assumed): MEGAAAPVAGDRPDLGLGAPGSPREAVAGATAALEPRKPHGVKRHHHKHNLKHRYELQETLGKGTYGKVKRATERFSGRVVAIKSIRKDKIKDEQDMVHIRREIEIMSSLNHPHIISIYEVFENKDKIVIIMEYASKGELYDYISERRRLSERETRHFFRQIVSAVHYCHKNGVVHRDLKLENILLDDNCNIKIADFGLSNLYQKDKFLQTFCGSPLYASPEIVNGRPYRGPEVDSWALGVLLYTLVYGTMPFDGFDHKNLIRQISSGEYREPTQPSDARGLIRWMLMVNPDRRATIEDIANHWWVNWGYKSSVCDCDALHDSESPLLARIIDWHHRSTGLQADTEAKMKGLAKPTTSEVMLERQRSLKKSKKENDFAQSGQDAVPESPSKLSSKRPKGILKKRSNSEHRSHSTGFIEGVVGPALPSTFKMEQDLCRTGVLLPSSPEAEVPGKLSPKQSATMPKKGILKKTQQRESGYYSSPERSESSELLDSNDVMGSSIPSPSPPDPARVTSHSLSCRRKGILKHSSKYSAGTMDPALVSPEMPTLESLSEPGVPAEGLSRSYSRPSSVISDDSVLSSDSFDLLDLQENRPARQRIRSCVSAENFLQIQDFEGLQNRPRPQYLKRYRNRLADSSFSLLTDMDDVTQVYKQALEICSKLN
Test: Kinase profiling NUAK1
Assay type: biochemical
Settings: 100 micromolar inhibitor concentration; 100 is no change
Text: Any value less that 25 is considered to be highly significant inhibition.
parameterMeasured: residual kinase activity, NUAK1
Just the number, please.

# example entries with known answers
compound	testedSystem	residual kinase activity, NUAK1
O=C(Nc1nc2ccc(O)cc2s1)c1ccncc1 [Compound 08-42]	NUAK1 (Homo sapiens)	57
O=C(Nc1nc2ccc(O)cc2s1)c1cccnc1 [Compound 08-44]	NUAK1 (Homo sapiens)	39
O=C(Nc1nc2cc(O)ccc2s1)c1ccncc1 [Compound 03-11]	NUAK1 (Homo sapiens)	86
O=C(Nc1nc2ccc(O)cc2s1)c1ccccn1 [Compound 03-12]	NUAK1 (Homo sapiens)	52
O=C(Nc1nc2cc(O)ccc2s1)c1ccccn1 [Compound 03-13]	NUAK1 (Homo sapiens)	64
CC(=O)Nc1nc2cc(C)ccc2s1 [Compound 03-76]	NUAK1 (Homo sapiens)	58
CC(=O)Nc1nc2ccccc2s1 [Compound 03-32]	NUAK1 (Homo sapiens)	74
O=C(Nc1nc2cc(O)ccc2s1)c1cccnc1 [Compound 03-33]	NUAK1 (Homo sapiens)	68

Proceeding to the next compound to report its residual kinase activity, NUAK1.
Ask: Give reported residual kinase activity, NUAK1 value for O=C(Nc1nc2ccc(O)cc2s1)c1ccccc1 [Compound 03-60]
Result: 14

----------
Target: IRR (Homo sapiens)
Sequence (P14616 27-1297, species assumed): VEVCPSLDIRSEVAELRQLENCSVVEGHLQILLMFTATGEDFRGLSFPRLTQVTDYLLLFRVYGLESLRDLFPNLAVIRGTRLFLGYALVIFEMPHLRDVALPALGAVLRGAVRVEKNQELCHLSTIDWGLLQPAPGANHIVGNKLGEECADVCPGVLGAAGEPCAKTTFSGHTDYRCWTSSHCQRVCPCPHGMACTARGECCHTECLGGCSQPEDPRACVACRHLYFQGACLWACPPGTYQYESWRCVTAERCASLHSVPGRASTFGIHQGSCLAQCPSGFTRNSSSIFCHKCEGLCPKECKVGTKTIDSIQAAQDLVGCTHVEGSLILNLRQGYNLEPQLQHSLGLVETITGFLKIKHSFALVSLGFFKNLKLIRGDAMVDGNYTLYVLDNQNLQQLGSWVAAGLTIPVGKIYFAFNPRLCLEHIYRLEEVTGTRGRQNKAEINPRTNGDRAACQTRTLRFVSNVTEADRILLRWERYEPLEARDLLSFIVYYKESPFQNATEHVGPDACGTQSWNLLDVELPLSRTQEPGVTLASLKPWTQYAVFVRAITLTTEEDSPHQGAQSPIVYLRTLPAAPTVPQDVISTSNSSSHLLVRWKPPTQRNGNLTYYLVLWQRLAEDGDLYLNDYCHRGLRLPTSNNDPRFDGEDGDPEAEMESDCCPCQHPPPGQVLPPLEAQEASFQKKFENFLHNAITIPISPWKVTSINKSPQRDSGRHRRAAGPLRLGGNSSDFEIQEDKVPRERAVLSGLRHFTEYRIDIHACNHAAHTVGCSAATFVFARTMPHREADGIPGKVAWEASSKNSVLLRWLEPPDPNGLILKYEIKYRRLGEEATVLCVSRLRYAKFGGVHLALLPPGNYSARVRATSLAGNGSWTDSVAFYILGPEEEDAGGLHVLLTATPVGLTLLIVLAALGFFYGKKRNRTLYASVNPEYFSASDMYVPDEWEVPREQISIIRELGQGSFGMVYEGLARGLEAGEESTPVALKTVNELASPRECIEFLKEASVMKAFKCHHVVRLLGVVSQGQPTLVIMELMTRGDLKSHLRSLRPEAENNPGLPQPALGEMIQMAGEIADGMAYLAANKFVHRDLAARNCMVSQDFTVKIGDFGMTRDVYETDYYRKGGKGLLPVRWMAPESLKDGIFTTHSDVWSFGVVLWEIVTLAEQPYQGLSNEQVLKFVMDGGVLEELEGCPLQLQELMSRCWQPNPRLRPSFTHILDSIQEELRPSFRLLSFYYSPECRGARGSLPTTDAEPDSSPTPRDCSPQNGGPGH
Test: Kinase profiling IRR
Format: biochemical
Conditions: 100 micromolar inhibitor concentration; 100 is no change
parameterMeasured: residual kinase activity, IRR
Give the value as a plain number.

Solved entries:
smilesText	parameterMeasured	observedValue
O=C(Nc1nc2ccc(O)cc2s1)c1ccccc1	residual kinase activity, IRR	31
O=C(Nc1nc2ccc(O)cc2s1)c1ccccn1	residual kinase activity, IRR	82
CC(=O)Nc1nc2cc(C)ccc2s1	residual kinase activity, IRR	66

Ask: Quote residual kinase activity, IRR reported for `O=C(Nc1nc2ccc(O)cc2s1)c1cccnc1` please.
Result: 45

Ask: Supply measured residual kinase activity, IRR of `O=C(Nc1nc2cc(O)ccc2s1)c1cccnc1` in your reply.
Result: 51

----------
Target: SRPK1 (Homo sapiens, UniProt Q96SB4)
Sequence (Q96SB4 whole entry, species assumed): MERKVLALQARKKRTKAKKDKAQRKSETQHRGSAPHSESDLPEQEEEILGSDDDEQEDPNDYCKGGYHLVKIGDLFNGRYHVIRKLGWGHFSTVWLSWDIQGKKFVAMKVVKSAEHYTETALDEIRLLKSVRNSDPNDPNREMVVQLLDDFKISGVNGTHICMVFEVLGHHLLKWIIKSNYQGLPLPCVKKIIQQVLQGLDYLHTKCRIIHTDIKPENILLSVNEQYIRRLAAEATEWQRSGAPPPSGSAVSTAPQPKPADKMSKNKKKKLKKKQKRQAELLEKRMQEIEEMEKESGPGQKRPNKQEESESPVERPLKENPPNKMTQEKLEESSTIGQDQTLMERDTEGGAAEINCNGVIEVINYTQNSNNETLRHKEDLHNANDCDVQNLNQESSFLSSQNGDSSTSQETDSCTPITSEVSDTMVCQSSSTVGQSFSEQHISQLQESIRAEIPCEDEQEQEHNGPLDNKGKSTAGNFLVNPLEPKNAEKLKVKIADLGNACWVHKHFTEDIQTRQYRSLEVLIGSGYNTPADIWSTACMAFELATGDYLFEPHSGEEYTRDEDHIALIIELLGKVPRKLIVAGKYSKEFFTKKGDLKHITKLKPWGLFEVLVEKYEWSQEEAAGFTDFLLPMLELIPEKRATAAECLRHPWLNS
Assay: Kinase profiling SRPK1
Format: biochemical
Settings: 100 micromolar inhibitor concentration; 100 is no change
Listed here are compounds together with their documented residual kinase activity, SRPK1.

Check out these entries, answers already filled in.
smilesText	observedValue
COc1ccc2sc(NC(=O)c3ccccc3)nc2c1	42
O=C(Nc1nc2ccc(F)cc2s1)c1ccccc1	19
COc1ccc2nc(NC(=O)c3ccccc3)sc2c1	10

Ask: Lab note: record residual kinase activity, SRPK1 of `COc1ccc2sc(NC(=O)c3cccc(C(N)=O)c3)nc2c1` tested on SRPK1 (Homo sapiens, UniProt Q96SB4).
Result: 82

Ask: Please respond with reported residual kinase activity, SRPK1 (system SRPK1 (Homo sapiens, UniProt Q96SB4)) for `O=C(Nc1nc2cc(O)ccc2s1)c1ccncc1` .
Result: 66

----------
Target: BRSK1 (Homo sapiens)
Sequence (Q8TDC3 whole entry, species assumed): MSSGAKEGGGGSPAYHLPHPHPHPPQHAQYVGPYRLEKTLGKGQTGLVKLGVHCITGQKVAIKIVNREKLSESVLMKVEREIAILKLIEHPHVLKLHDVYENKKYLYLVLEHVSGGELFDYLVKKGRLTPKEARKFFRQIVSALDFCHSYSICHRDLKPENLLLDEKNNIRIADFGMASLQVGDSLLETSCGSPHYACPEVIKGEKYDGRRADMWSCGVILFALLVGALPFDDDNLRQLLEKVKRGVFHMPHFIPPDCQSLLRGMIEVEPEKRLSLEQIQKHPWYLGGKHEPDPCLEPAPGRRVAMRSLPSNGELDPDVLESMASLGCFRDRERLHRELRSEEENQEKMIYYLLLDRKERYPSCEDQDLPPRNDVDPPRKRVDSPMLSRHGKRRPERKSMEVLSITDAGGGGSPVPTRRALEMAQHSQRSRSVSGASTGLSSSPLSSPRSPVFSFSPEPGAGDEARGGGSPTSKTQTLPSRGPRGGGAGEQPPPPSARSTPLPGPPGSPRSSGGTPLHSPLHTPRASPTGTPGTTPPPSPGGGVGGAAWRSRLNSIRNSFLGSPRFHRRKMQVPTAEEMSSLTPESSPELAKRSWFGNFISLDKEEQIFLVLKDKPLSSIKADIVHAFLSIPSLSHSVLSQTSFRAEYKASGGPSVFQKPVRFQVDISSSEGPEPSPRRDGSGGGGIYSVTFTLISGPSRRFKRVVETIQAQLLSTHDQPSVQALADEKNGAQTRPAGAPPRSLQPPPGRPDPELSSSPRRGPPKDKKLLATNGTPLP
Assay: Kinase profiling BRSK1
Assay type: biochemical
Settings: 100 micromolar inhibitor concentration; 100 is no change
Text: Any value less that 25 is considered to be highly significant inhibition.
Documented residual kinase activity, BRSK1 across a set of molecules
Returns: the value as a bare number; no unit string appended.

// solved cases for residual kinase activity, BRSK1 follow
smilesText	testedSystem	residual kinase activity, BRSK1
CC(=O)Nc1nc2cc(C)ccc2s1	BRSK1 (Homo sapiens)	75
O=C(Nc1nc2ccc(O)cc2s1)c1cccnc1	BRSK1 (Homo sapiens)	45
O=C(Nc1nc2ccc(O)cc2s1)c1ccccn1	BRSK1 (Homo sapiens)	63

Ask: Fill in residual kinase activity, BRSK1 for `O=C(Nc1nc2ccc(O)cc2s1)c1ccccc1` tested with BRSK1 (Homo sapiens).
Result: 43

Ask: State, for BRSK1 (Homo sapiens), measured residual kinase activity, BRSK1 of the molecule listed here: `O=C(Nc1nc2cc(O)ccc2s1)c1ccccn1`
Result: 95

----------
Molecular target: UniProt:Q15831
Test: Kinase profiling LKB1
Format: biochemical
Details: 100 micromolar inhibitor concentration; 100 is no change; read-out: residual kinase activity, LKB1
remaining activity at 100 µM strictly under 80% means class 1; at 80% or over means class 0.

smilesText	testedSystem	label
CC(=O)Nc1nc2cc(C(F)(F)F)ccc2s1	UniProt:Q15831	class 0

Ask: A record lists `CC(=O)Nc1nc2ccc(O)cc2s1` . Is its remaining activity at 100 µM below 80%?
Result: class 1

Ask: Please let me know if `COc1ccc2sc(NC(C)=O)nc2c1` shows remaining activity at 100 µM below 80%.
Result: class 0

Ask: For this compound, is remaining activity at 100 µM lower than 80%? `CC(=O)Nc1nc2ccc([N+](=O)[O-])cc2s1`
Result: class 1

Ask: Please determine if `CC(=O)Nc1nc2ccc(C#N)cc2s1` is below 80% in terms of remaining activity at 100 µM.
Result: class 1

Ask: Is remaining activity at 100 µM of `CC(=O)Nc1nc2cc(F)ccc2s1` strictly below 80%?
Result: class 0

----------
Target: PIM2 (Homo sapiens)
Sequence (Q9P1W9 whole entry, species assumed): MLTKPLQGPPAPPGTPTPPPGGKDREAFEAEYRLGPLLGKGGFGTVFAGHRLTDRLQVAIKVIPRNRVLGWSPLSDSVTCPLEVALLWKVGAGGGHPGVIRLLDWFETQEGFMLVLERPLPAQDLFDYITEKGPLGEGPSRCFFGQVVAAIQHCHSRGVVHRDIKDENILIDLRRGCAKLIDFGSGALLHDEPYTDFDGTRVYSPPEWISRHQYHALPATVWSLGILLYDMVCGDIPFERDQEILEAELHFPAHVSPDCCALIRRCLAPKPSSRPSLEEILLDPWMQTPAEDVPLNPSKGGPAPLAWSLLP
Test: Kinase profiling PIM2
Type: biochemical
Settings: 100 micromolar inhibitor concentration; 100 is no change; read-out: residual kinase activity, PIM2
Lab note: cut-off is 60%. Strictly less in remaining activity at 100 µM is 1. Exactly 60% or more is -1.

As a guide, the following entries are already answered.
smilesText	label
CC(=O)Nc1nc2ccc(C(F)(F)F)cc2s1	-1
CC(=O)Nc1nc2ccc(C#N)cc2s1	-1
CC(=O)Nc1nc2cc(C(F)(F)F)ccc2s1	-1

Ask: Regarding `CC(=O)Nc1nc2cc(F)ccc2s1` , kindly confirm whether its remaining activity at 100 µM is beneath 60%.
Result: -1

Ask: I'd appreciate it if you could check whether `CC(=O)Nc1nc2ccc(O)cc2s1` has remaining activity at 100 µM smaller than 60%.
Result: 1

Ask: Does this molecule meet the criterion remaining activity at 100 µM < 60%? `COc1ccc2sc(NC(C)=O)nc2c1`
Result: 1

----------
Reported residual kinase activity, PRAK values for the following compounds.
Molecular target: PRAK (Homo sapiens)
Sequence (Q8IW41 1-473): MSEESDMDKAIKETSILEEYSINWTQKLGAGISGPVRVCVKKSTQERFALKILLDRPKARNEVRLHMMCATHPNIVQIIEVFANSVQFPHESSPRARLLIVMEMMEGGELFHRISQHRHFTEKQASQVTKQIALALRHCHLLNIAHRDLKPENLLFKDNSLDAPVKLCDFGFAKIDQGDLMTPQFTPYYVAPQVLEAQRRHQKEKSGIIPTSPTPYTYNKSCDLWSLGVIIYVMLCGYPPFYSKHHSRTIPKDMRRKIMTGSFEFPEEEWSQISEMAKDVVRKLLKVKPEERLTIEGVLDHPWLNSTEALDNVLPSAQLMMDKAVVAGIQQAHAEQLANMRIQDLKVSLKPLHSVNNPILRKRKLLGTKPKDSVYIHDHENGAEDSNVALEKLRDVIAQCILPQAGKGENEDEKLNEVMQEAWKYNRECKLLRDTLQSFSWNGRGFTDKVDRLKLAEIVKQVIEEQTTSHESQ
Assay: Kinase profiling PRAK
Assay type: biochemical
Settings: 100 micromolar inhibitor concentration; 100 is no change
The answer should be a number; do not append a unit.

In the examples that follow, each entry is paired with its recorded residual kinase activity, PRAK.
smilesText	residual kinase activity, PRAK
O=C(Nc1nc2cc(O)ccc2s1)c1ccncc1	86
O=C(Nc1nc2ccc(O)cc2s1)c1cccnc1	60
O=C(Nc1nc2ccc(O)cc2s1)c1ccccn1	65
CC(=O)Nc1nc2ccccc2s1	78
O=C(Nc1nc2cc(O)ccc2s1)c1cccnc1	83
O=C(Nc1nc2ccc(O)cc2s1)c1ccncc1	74
CC(=O)Nc1nc2cc(C)ccc2s1	75
O=C(Nc1nc2ccc(O)cc2s1)c1ccccc1	39

Ask: Specify measured residual kinase activity, PRAK for `O=C(Nc1nc2cc(O)ccc2s1)c1ccccn1` .
Result: 90
